src = ChEMBL document CHEMBL5506039

# runDescription: Therapeutic index, ratio of IC50 for human HepG2 cells to EC50 for antileishmanial activity against Leishmania donovani amastigotes expressing red-shifted firefly luciferase from integrated ribosomal (28S) RNA locus infected in mouse J774.A1 cells
# Assay type: toxicity, cell-based
# statedConditions: read-out: TI
// NB: equality with 30 counts as Not fulfilled; only selectivity ratio strictly below is Fulfilled

{"structureSmiles": "COC1=CC(c2ccc[nH]2)=N/C1=C\\Nc1ccc(Oc2ccc(C)cc2)cc1", "label": "Fulfilled"}
{"structureSmiles": "COC1=CC(c2ccc[nH]2)=N/C1=C\\NCC1CCCCCC1.Cl", "label": "Not fulfilled"}
{"structureSmiles": "CCCCCCN/C=C1\\N=C(c2ccc[nH]2)C=C1OC.Cl", "label": "Not fulfilled"}
{"structureSmiles": "COC1=CC(c2ccc[nH]2)=N/C1=C\\N[C@H]1CC[C@H](C(F)(F)F)CC1.Cl", "label": "Fulfilled"}
{"structureSmiles": "COC1=CC(c2ccc[nH]2)=N/C1=C\\N[C@H]1CC[C@H](C)CC1.Cl", "label": "Fulfilled"}
